Tested on: HeLa Kyoto
Assay: solubility in G1/S (NP-40 vs SDS abundance) (log2 ratio); higher = more soluble
Details: cell cycle stage: G1/S
For each of the sequences below, state its solubility in G1/S (log2).

So the reported solubility in G1/S (log2) for MAARRGALIVLEGVDRAGKSTQSRKLVEALCAAGHRAELLRFPERSTEIGKLLSSYLQKKSDVEDHSVHLLFSANRWEQVPLIKEKLSQGVTLVVDRYAFSGVAFTGAKENFSLDWCKQPDVGLPKPDLVLFLQLQLADAAKRGAFGHERYENGAFQERALRCFHQLMKDTTLNWKMVDASKSIEAVHEDIRVLSEDAIRTATEKPLGELWK [DTYMK] , on HeLa Kyoto, turned out to be -0.0236

So the reported solubility in G1/S (log2) for MMWQKYAGSRRSMPLGARILFHGVFYAGGFAIVYYLIQKFHSRALYYKLAVEQLQSHPEAQEALGPPLNIHYLKLIDRENFVDIVDAKLKIPVSGSKSEGLLYVHSSRGGPFQRWHLDEVFLELKDGQQIPVFKLSGENGDEVKKE [COA1] , on HeLa Kyoto, turned out to be 0.0268

###

System: HeLa Kyoto
Assay: melting temperature (median over replicates), in situ; higher = more thermally stable
Conditions: cell cycle stage: G1/S
For each of the sequences below, state its melting temperature.
Field: numeric (°C). Do not append units.

So the reported melting temperature for MPRVVPDQRSKFENEEFFRKLSRECEIKYTGFRDRPHEERQARFQNACRDGRSEIAFVATGTNLSLQFFPASWQGEQRQTPSREYVDLEREAGKVYLKAPMILNGVCVIWKGWIDLQRLDGMGCLEFDEERAQQEDALAQQAFEEARRRTREFEDRDRSHREEMEVRVSQLLAVTGKKTTRP [CBFB] , on HeLa Kyoto, turned out to be 49

So the reported melting temperature for MSCINLPTVLPGSPSKTRGQIQVILGPMFSGKSTELMRRVRRFQIAQYKCLVIKYAKDTRYSSSFCTHDRNTMEALPACLLRDVAQEALGVAVIGIDEGQFFPDIVEFCEAMANAGKTVIVAALDGTFQRKPFGAILNLVPLAESVVKLTAVCMECFREAAYTKRLGTEKEVEVIGGADKYHSVCRLCYFKKASGQPAGPDNKENCPVPGKPGEAVAARKLFAPQQILQCSPAN [TK1] , on HeLa Kyoto, turned out to be 56.1

So the reported melting temperature for MAAPGLRLGAGRLFEMPAVLERLSRYNSTSQAFAEVLRLPKQQLRKLLYPLQEVERFLAPYGRQDLHLRIFDPSPEDIARADNIFTATERNRIDYVSSAVRIDHAPDLPRPEVCFIGRSNVGKSSLIKALFSLAPEVEVRVSKKPGHTKKMNFFKVGKHFTVVDMPGYGFRAPEDFVDMVETYLKERRNLKRTFLLVDSVVGIQKTDNIAIEMCEEFALPYVIVLTKIDKSSKGHLLKQVLQIQKFVNMKTQGCFPQLFPVSAVTFSGIHLLRCFIASVTGSLD [GTPBP8] , on HeLa Kyoto, turned out to be 50.8

So the reported melting temperature for MSSFSESALEKKLSELSNSQQSVQTLSLWLIHHRKHAGPIVSVWHRELRKAKSNRKLTFLYLANDVIQNSKRKGPEFTREFESVLVDAFSHVAREADEGCKKPLERLLNIWQERSVYGGEFIQQLKLSMEDSKSPPPKATEEKKSLKRTFQQIQEEEDDDYPGSYSPQDPSAGPLLTEELIKALQDLENAASGDATVRQKIASLPQEVQDVSLLEKITDKEAAERLSKTVDEACLLLAEYNGRLAAELEDRRQLARMLVEYTQNQKDVLSEKEKKLEEYKQKLARVTQVRKELKSHIQSLPDLSLLPNVTGGLAPLPSAGDLFSTD [RPRD1B] , on HeLa Kyoto, turned out to be 49.5

So the reported melting temperature for MIIYRDLISHDEMFSDIYKIREIADGLCLEVEGKMVSRTEGNIDDSLIGGNASAEGPEGEGTESTVITGVDIVMNHHLQETSFTKEAYKKYIKDYMKSIKGKLEEQRPERVKPFMTGAAEQIKHILANFKNYQFFIGENMNPDGMVALLDYREDGVTPYMIFFKDGLEMEKC [TPT1] , on HeLa Kyoto, turned out to be 53.5

So the reported melting temperature for MATRQRESSITSCCSTSSCDADDEGVRGTCEDASLCKRFAVSIGYWHDPYIQHFVRLSKERKAPEINRGYFARVHGVSQLIKAFLRKTECHCQIVNLGAGMDTTFWRLKDEDLLPSKYFEVDFPMIVTRKLHSIKCKPPLSSPILELHSEDTLQMDGHILDSKRYAVIGADLRDLSELEEKLKKCNMNTQLPTLLIAECVLVYMTPEQSANLLKWAANSFERAMFINYEQVNMGDRFGQIMIENLRRRQCDLAGVETCKSLESQKERLLSNGWETASAVDMMELYNRLPRAEVSRIESLEFLDEMELLEQLMRHYCLCWATKGGNELGLKEITY [LCMT1] , on HeLa Kyoto, turned out to be 52.1

###

System: HeLa Kyoto
Test: melting temperature (median over replicates), in situ; higher = more thermally stable
Conditions: cell cycle stage: mitosis
assay-metric: melting temperature (°C)
Field: numeric (°C). Do not append units.

# melting temperature (sequence: MKLIILEHYSQASEWAAKYIRNRIIQFNPGPEKYFTLGLPTGSTPLGCYKKLIEYYKNGDLSFKYVKTFNMDEYVGLPRDHPESYHSFMWNNFFKHIDIHPENTHILDGNAVDLQAECDAFEEKIKAAGGIELFVGGIGPDGHIAFNEPGSSLVSRTRVKTLAMDTILANARFFDGELTKVPTMALTVGVGTVMDAREVMILITGAHKAFALYKAIEEGVNHMWTVSAFQQHPRTVFVCDEDATLELKVKTVKYFKGLMLVHNKLVDPLYSIKEKETEKSQSSKKPYSD [GNPDA1] ) is 62.9

# melting temperature (sequence: MPLLTQQIQDEDDQYSLVASLDNVRNLSTILKAIHFREHATCFATKNGIKVTVENAKCVQANAFIQAGIFQEFKVQEESVTFRINLTVLLDCLSIFGSSPMPGTLTALRMCYQGYGYPLMLFLEEGGVVTVCKINTQEPEETLDFDFCSTNVINKIILQSEGLREAFSELDMTSEVLQITMSPDKPYFRLSTFGNAGSSHLDYPKDSDLMEAFHCNQTQVNRYKISLLKPSTKALVLSCKVSIRTDNRGFLSLQYMIRNEDGQICFVEYYCCPDEEVPESES [RAD1] ) is 51.2

# melting temperature (sequence: MEQPGQDPTSDDVMDSFLEKFQSQPYRGGFHEDQWEKEFEKVPLFMSRAPSEIDPRENPDLACLQSIIFDEERSPEEQAKTYKDEGNDYFKEKDYKKAVISYTEGLKKKCADPDLNAVLYTNRAAAQYYLGNFRSALNDVTAARKLKPCHLKAIIRGALCHLELKHFAEAVNWCDEGLQIDAKEKKLLEMRAKADKLKRIEQRDVRKANLKEKKERNQNEALLQAIKARNIRLSEAACEDEDSASEGLGELFLDGLSTENPHGARLSLDGQGRLSWPVLFLYPEYAQSDFISAFHEDSRFIDHLMVMFGETPSWDLEQKYCPDNLEVYFEDEDRAELYRVPAKSTLLQVLQHQRYFVKALTPAFLVCVGSSPFCKNFLRGRKVYQIR [TTC4] ) is 49.4

# melting temperature (sequence: MALLCYNRGCGQRFDPETNSDDACTYHPGVPVFHDALKGWSCCKRRTTDFSDFLSIVGCTKGRHNSEKPPEPVKPEVKTTEKKELCELKPKFQEHIIQAPKPVEAIKRPSPDEPMTNLELKISASLKQALDKLKLSSGNEENKKEEDNDEIKIGTSCKNGGCSKTYQGLESLEEVCVYHSGVPIFHEGMKYWSCCRRKTSDFNTFLAQEGCTKGKHMWTKKDAGKKVVPCRHDWHQTGGEVTISVYAKNSLPELSRVEANSTLLNVHIVFEGEKEFDQNVKLWGVIDVKRSYVTMTATKIEITMRKAEPMQWASLELPAAKKQEKQKDATTD [CHORDC1] ) is 52.4

# melting temperature (sequence: MRFLAATFLLLALSTAAQAEPVQFKDCGSVDGVIKEVNVSPCPTQPCQLSKGQSYSVNVTFTSNIQSKSSKAVVHGILMGVPVPFPIPEPDGCKSGINCPIQKDKTYSYLNKLPVKSEYPSIKLVVEWQLQDDKNQSLFCWEIPVQIVSHL [NPC2] ) is 53.4

###

Tested on: HeLa Kyoto
Test: thermal stability score vs G1/S (z-score of summed log2 fold changes over temperatures); higher = more thermally stable than in G1/S
Details: cell cycle stage: early G1 (4.5 h after nocodazole release)
assay-metric: thermal stability score
// return just the number, without any unit appended

# thermal stability score (substance: MARGGRGRRLGLALGLLLALVLAPRVLRAKPTVRKERVVRPDSELGERPPEDNQSFQYDHEAFLGKEDSKTFDQLTPDESKERLGKIVDRIDNDGDGFVTTEELKTWIKRVQKRYIFDNVAKVWKDYDRDKDDKISWEEYKQATYGYYLGNPAEFHDSSDHHTFKKMLPRDERRFKAADLNGDLTATREEFTAFLHPEEFEHMKEIVVLETLEDIDKNGDGFVDQDEYIADMFSHEENGPEPDWVLSEREQFNEFRDLNKDGKLDKDEIRHWILPQDYDHAQAEARHLVYESDKNKDEKLTKEEILENWNMFVGSQATNYGEDLTKNHDEL [RCN1] ) is 1.52

# thermal stability score (substance: MGARASGGPLARAGLLLLLLLLLLLGLLAPGAQGARGRGGAEKNSYRRTVNTFSQSVSSLFGEDNVRAAQKFLARLTERFVLGVDMFVETLWKVWTELLDVLGLDVSNLSQYFSPASVSSSPARALLLVGVVLLAYWFLSLTLGFTFSVLHVVFGRFFWIVRVVLFSMSCVYILHKYEGEPENAVLPLCFVVAVYFMTGPMGFYWRSSPSGPSNPSNPSVEEKLEHLEKQVRLLNIRLNRVLESLDRSKDK [BRI3BP] ) is -0.814

# thermal stability score (substance: ARFGEF2 ) is 0.0515

# thermal stability score (substance: MAEISDLDRQIEQLRRCELIKESEVKALCAKAREILVEESNVQRVDSPVTVCGDIHGQFYDLKELFRVGGDVPETNYLFMGDFVDRGFYSVETFLLLLALKVRYPDRITLIRGNHESRQITQVYGFYDECLRKYGSVTVWRYCTEIFDYLSLSAIIDGKIFCVHGGLSPSIQTLDQIRTIDRKQEVPHDGPMCDLLWSDPEDTTGWGVSPRGAGYLFGSDVVAQFNAANDIDMICRAHQLVMEGYKWHFNETVLTVWSAPNYCYRCGNVAAILELDEHLQKDFIIFEAAPQETRGIPSKKPVADYFL [PPP4C] ) is 0.0354

# thermal stability score (substance: MATALALRSLYRARPSLRCPPVELPWAPRRGHRLSPADDELYQRTRISLLQREAAQAMYIDSYNSRGFMINGNRVLGPCALLPHSVVQWNVGSHQDITEDSFSLFWLLEPRIEIVVVGTGDRTERLQSQVLQAMRQRGIAVEVQDTPNACATFNFLCHEGRVTGAALIPPPGGTSLTSLGQAAQ [NDUFAF3] ) is -0.2

# thermal stability score (substance: MEINTKLLISVTCISFFTFQLLFYFVSYWFSAKVSPGFNSLSFKKKIEWNSRVVSTCHSLVVGIFGLYIFLFDEATKADPLWGGPSLANVNIAIASGYLISDLSIIILYWKVIGDKFFIMHHCASLYAYYLVLKNGVLAYIGNFRLLAELSSPFVNQRWFFEALKYPKFSKAIVINGILMTVVFFIVRIASMLPHYGFMYSVYGTEPYIRLGVLIQLSWVISCVVLDVMNVMWMIKISKGCIKVISHIRQEKAKNSLQNGKLD [TMEM56] ) is 0.000211
